System: mouse (MC3T3-E1) and human (TE-85) osteoblast-line cells
Format: cell-based
Details: 10^-10
Entries and their Osteoblast Cell Proliferation, 3H-thymidine incorporation vs control (100%)
Observation type: Osteoblast Cell Proliferation, 3H-thymidine incorporation vs control (100%)

Compound	Target	Value observed
O=C(c1ccc(Cl)c(Cl)c1)N1CCCC(c2ccccc2)=N1 [Compound 185]	mouse (MC3T3-E1) and human (TE-85) osteoblast-line cells	128
O=S(=O)(c1ccc(F)cc1F)N1CCCC(c2ccc(Cl)cc2)=N1 [Compound 32]	mouse (MC3T3-E1) and human (TE-85) osteoblast-line cells	118
CC1CC(c2ccccc2)=NN(C(=O)c2ccc(Cl)c(Cl)c2)C1 (racemic) [Compound 233]	mouse (MC3T3-E1) and human (TE-85) osteoblast-line cells	138
O=C(c1cc(Cl)cc(Cl)c1)N1CCCC(c2ccc(Cl)c(Cl)c2)=N1 [Compound 219]	mouse (MC3T3-E1) and human (TE-85) osteoblast-line cells	178
S=C(c1cc(Cl)cc(Cl)c1)N1CCCC(c2ccc(Cl)c(Cl)c2)=N1 [Compound 244]	mouse (MC3T3-E1) and human (TE-85) osteoblast-line cells	144
O=S(=O)(c1cc(Cl)ccc1Cl)N1CCCC(c2ccc(Cl)cc2)=N1 [Compound 5]	mouse (MC3T3-E1) and human (TE-85) osteoblast-line cells	114
O=S(=O)(c1c(F)c(F)c(F)c(F)c1F)N1CCCC(c2ccc(F)cc2)=N1 [Compound 152]	mouse (MC3T3-E1) and human (TE-85) osteoblast-line cells	161
COc1ccc(C2=NN(S(=O)(=O)c3ccc(Cl)cc3)CCC2)cc1 [Compound 63]	mouse (MC3T3-E1) and human (TE-85) osteoblast-line cells	97
COc1ccc(C2=NN(C(=O)c3ccc(Cl)cc3)CCC2)cc1 [Compound 184]	mouse (MC3T3-E1) and human (TE-85) osteoblast-line cells	131
CCOP(=O)(c1ccccc1)N1CCCC(c2ccccc2)=N1 (centres unmarked) [Compound 253]	mouse (MC3T3-E1) and human (TE-85) osteoblast-line cells	157
CCCCc1ccc(C2=NN(P(=O)(OC)c3ccccc3)CCC2)cc1 (centres unmarked) [Compound 251]	mouse (MC3T3-E1) and human (TE-85) osteoblast-line cells	111

---

Tested on: mouse (MC3T3-E1) and human (TE-85) osteoblast-line cells
Format: cell-based
Details: 10^-10
Observation type: Osteoblast Cell Proliferation, 3H-thymidine incorporation vs control (100%)

Compound	Value observed
O=S(=O)(c1cc(C(F)(F)F)cc(C(F)(F)F)c1)N1CCCC(c2ccc(Cl)cc2)=N1	152
O=S(=O)(c1ccc(Cl)cc1)N1CCCC(c2ccc(-c3ccccc3)cc2)=N1	122
CC(C)OP(=O)(c1ccccc1)N1CCCC(c2ccc(Cl)c(Cl)c2)=N1 (centres unmarked)	116
O=S(=O)(c1ccc(I)cc1)N1CCCC(c2ccc(Cl)c(Cl)c2)=N1	53
COc1ccc(C2=NN(C(=O)c3ccc(C(C)(C)C)cc3)CCC2)cc1	52

---

pIC50: −log10 of the molar value.
So I've got pIC50 readings for progestin receptor from rabbit uterus (Oryctolagus cuniculus, UniProt P06186), take a look.
Observation type: pIC50

Compound	Value observed
O=C(c1ccc([N+](=O)[O-])cc1)N1CCCC(c2ccc(F)cc2)=N1	6.01
O=S(=O)(c1ccc(Br)cc1)N1CCCC(c2ccc(Cl)cc2)=N1	8.05
O=S(=O)(c1cccc(C(F)(F)F)c1)N1CCCC(c2ccc(Cl)c(C(F)(F)F)c2)=N1	8.15
Cc1ccc(S(=O)(=O)N2CCCC(c3ccc(Br)cc3)=N2)cc1	6.71
O=C(c1ccc(Br)cc1)N1CCCC(c2ccc(Cl)cc2)=N1	5.00
O=[N+]([O-])c1ccc(S(=O)(=O)N2CCCC(c3ccc(Cl)cc3)=N2)cc1	6.70
COc1ccc(C2=NN(C(=O)c3cccc(Cl)c3)CCC2)cc1	4.00
COc1ccc(C2=NN(S(=O)(=O)c3ccccc3)CCC2)cc1	6.26
O=C(c1ccccc1)N1CCCC(c2ccccc2)=N1	4.00
O=[N+]([O-])c1cc(S(=O)(=O)N2CCCC(c3ccc(Cl)c(Cl)c3)=N2)ccc1Cl	7.80
O=S(=O)(c1ccc(Cl)cc1)N1CCCC(c2cccc(Cl)c2)=N1	7.95
O=S(=O)(c1cccc(C(F)(F)F)c1)N1CCCC(c2ccc3ccccc3c2)=N1	8.64
O=S(=O)(c1ccc2c(c1)CCCC2)N1CCCC(c2ccc(Cl)c(Cl)c2)=N1	8.19
O=S(=O)(c1ccc(Cl)cc1)N1CCCC(c2ccc(Br)cc2)=N1	7.68
COC12CCCCC1CC(c1ccccc1)=NN2S(=O)(=O)c1ccc(C)cc1 (centres unmarked)	5.86
O=S(=O)(c1ccccc1)N1CCCC(c2ccc3ccccc3c2)=N1	7.76
CCCCc1ccc(C2=NN(S(=O)(=O)c3ccccc3)CCC2)cc1	5.00
Cc1ccc(C(=O)N2CCCC(c3ccc(Cl)cc3)=N2)cc1 [Compound 192]	4.00
Cc1ccc(S(=O)(=O)N2CCCC(c3ccccc3)=N2)cc1	5.52
O=S(=O)(c1ccccc1)N1CCCC(c2ccc(Cl)c(C(F)(F)F)c2)=N1	8.32
Nc1ccc(S(=O)(=O)N2CCCC(c3ccc(Cl)c(Cl)c3)=N2)cc1	6.69
CCCCc1ccc(C2=NN(S(=O)(=O)c3ccc4ccccc4c3)CCC2)cc1	5.00
O=S(=O)(c1cccc(Cl)c1)N1CCCC(c2ccc(Cl)c(Cl)c2)=N1	8.96
CCOP(=O)(c1ccccc1)N1CCCC(c2ccccc2)=N1 (centres unmarked)	6.16
COc1ccc(C2=NN(C(=O)c3ccc(Cl)cc3)CCC2)cc1	4.00
COc1ccc(C(=O)N2CCCC(c3ccc(OC)cc3)=N2)cc1	4.00
O=S(=O)(c1ccccc1)N1CCCC(c2ccccc2)=N1	6.43
CCCCc1ccc(C2=NN(S(=O)(=O)c3cc(Cl)ccc3Cl)CCC2)cc1	5.00
O=C(c1ccc(Cl)cc1)N1CCCC(c2ccc(Cl)cc2)=N1	5.00

---

So I've got IC50 readings for UniProt:P06186, take a look.
Observation type: IC50 (nM)

Substance smiles	Unit descriptor	Value observed
O=C(c1ccc(Cl)c(Cl)c1)N1CCCC(c2ccc(Cl)c(Cl)c2)=N1	nM	103
O=S(=O)(c1ccc(Cl)cc1)N1CCCC(c2ccc(Cl)cc2)=N1	nM	15
O=[N+]([O-])c1cccc(S(=O)(=O)N2CCCC(c3ccc(Cl)c(C(F)(F)F)c3)=N2)c1	nM	4.04
O=S(=O)(/C=C/c1cccc(Cl)c1)N1CCCC(c2ccc(Cl)c(Cl)c2)=N1	nM	32

---

Biological target: progestin receptor from rabbit uterus (Oryctolagus cuniculus, UniProt P06186)
Sequence (P06186 whole entry): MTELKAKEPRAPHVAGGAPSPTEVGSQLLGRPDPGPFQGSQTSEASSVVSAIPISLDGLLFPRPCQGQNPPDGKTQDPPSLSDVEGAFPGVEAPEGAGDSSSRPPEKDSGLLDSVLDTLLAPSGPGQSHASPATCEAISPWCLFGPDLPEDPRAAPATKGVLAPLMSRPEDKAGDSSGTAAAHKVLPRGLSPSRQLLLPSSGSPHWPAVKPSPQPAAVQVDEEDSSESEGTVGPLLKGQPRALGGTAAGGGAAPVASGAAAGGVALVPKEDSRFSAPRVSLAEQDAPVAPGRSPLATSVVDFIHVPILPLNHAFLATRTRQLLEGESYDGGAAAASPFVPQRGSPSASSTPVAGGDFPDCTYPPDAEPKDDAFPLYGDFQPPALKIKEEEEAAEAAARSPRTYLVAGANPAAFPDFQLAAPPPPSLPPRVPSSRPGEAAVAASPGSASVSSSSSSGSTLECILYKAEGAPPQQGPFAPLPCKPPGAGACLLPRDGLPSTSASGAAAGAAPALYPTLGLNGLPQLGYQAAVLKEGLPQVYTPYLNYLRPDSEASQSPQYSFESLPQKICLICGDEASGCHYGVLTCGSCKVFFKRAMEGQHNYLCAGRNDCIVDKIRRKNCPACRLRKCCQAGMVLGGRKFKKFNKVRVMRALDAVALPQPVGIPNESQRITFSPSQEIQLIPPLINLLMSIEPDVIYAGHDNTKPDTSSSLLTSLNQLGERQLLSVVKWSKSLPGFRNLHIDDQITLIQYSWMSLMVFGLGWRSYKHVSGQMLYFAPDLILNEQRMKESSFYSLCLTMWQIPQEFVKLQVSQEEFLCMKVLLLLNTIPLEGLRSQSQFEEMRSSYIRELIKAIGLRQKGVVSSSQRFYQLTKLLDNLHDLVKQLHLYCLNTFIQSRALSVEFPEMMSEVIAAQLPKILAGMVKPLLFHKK
pIC50: −log10 of the molar value.
Observation type: pIC50

Compound	Observation type	Value observed
CC1CC(c2ccccc2)=NN(S(=O)(=O)c2cc(Cl)ccc2Cl)C1 (centres unmarked)	pIC50	7.14
O=S(=O)(c1cc(Cl)cc(Cl)c1)N1CCCC(c2ccc(Cl)cc2)=N1	pIC50	8.40
O=S(=O)(c1ccc(F)cc1)N1CCCC(c2ccc(Cl)c(Cl)c2)=N1	pIC50	8.15
COC(=O)c1ccccc1S(=O)(=O)N1CCCC(c2ccc(Cl)c(Cl)c2)=N1	pIC50	7.70
O=[N+]([O-])c1cc(S(=O)(=O)N2CCCC(c3ccc(Cl)cc3)=N2)ccc1Cl	pIC50	6.90
COc1ccc(C2=NN(S(=O)(=O)c3ccc(Cl)cc3)CCC2)cc1	pIC50	6.93
COc1ccc(C(=O)N2CCCC(c3ccc(Cl)cc3)=N2)cc1	pIC50	4.00
O=S(=O)(/C=C/c1ccc(Cl)cc1)N1CCCC(c2ccc(Cl)c(Cl)c2)=N1	pIC50	8.67
O=S(=O)(c1cc(Cl)ccc1Cl)N1CCCC(c2ccc(Br)cc2)=N1	pIC50	8.05
O=[N+]([O-])c1ccc(S(=O)(=O)N2CCCC(c3ccccc3)=N2)cc1	pIC50	5.66
O=S(=O)(c1cc(Cl)c(Cl)cc1Cl)N1CCCC(c2ccc(Cl)cc2)=N1	pIC50	7.87
O=[N+]([O-])c1cc(S(=O)(=O)N2CCCC(c3ccccc3)=N2)ccc1Cl	pIC50	6.35
CCCCc1ccc(S(=O)(=O)N2CCCC(c3ccc(Cl)c(C(F)(F)F)c3)=N2)cc1	pIC50	8.06
O=S(=O)(c1ccccc1)N1CCCC(c2ccc(Br)cc2)=N1	pIC50	6.83
O=C(c1ccc([N+](=O)[O-])cc1)N1CCCC(c2ccc(Cl)cc2)=N1	pIC50	6.55
O=C(c1ccc(Cl)cc1)N1CCCC(c2ccc(F)cc2)=N1	pIC50	5.52
O=[N+]([O-])c1cccc(S(=O)(=O)N2CCCC(c3ccc(Cl)cc3)=N2)c1	pIC50	8.15
O=S(=O)(/C=C/c1ccc2ccccc2c1)N1CCCC(c2ccc(Cl)c(C(F)(F)F)c2)=N1	pIC50	6.28
O=[N+]([O-])c1cccc(S(=O)(=O)N2CCCC(c3ccccc3)=N2)c1	pIC50	6.80
O=S(=O)(c1ccc(I)cc1)N1CCC(Br)(Br)C(c2ccc(Cl)c(C(F)(F)F)c2)=N1	pIC50	8.52
CCCCc1ccc(S(=O)(=O)N2CCCC(c3ccc(Cl)c(Cl)c3)=N2)cc1	pIC50	8.47
CC(=O)Nc1ccc(S(=O)(=O)N2CCCC(c3ccc(Cl)cc3)=N2)cc1	pIC50	6.09
CN(C)c1ccc(C2=NN(S(=O)(=O)c3ccc(Br)cc3)CCC2)cc1	pIC50	6.49
COc1ccc(C2=NN(C(=O)c3ccc(C(C)(C)C)cc3)CCC2)cc1	pIC50	4.00
O=S(=O)(c1cccc(C(F)(F)F)c1)N1CCCC(c2ccc(Cl)c(Cl)c2)=N1	pIC50	8.60
Cc1ccc(S(=O)(=O)N2CCCC(c3ccc(Cl)c(C(F)(F)F)c3)=N2)cc1	pIC50	8.53
Cc1ccc(S(=O)(=O)N2N=C(c3cccc(Br)c3)CC3C4C5C=CC(C5)C4CC32)cc1 (centres unmarked)	pIC50	5.52
CC1CCC(c2ccc(Cl)c(C(F)(F)F)c2)=NN1S(=O)(=O)c1ccc(I)cc1 (centres unmarked)	pIC50	10.70
O=[N+]([O-])c1ccc(S(=O)(=O)N2CCCC(c3ccc(Cl)cc3)=N2)c([N+](=O)[O-])c1	pIC50	5.50
O=C(c1cccc(Cl)c1)N1CCCC(c2ccc(Cl)cc2)=N1	pIC50	4.00
O=S(=O)(c1ccc(C(F)(F)F)cc1)N1CCCC(c2ccc(Cl)cc2)=N1	pIC50	7.94
O=S(=O)(c1ccc(I)cc1)N1CCCC(c2cccc(Cl)c2)=N1	pIC50	7.92

Source: patent US5684151A
